Tested on: infected muscle tissue
Assay: in vivo
Set-up: species or system New Zealand white rabbits
Conditions: rabbit
Method: After 24 h, the animals were sedated by i.m. injection of ketamine and xylazine, and then injected i.v. with Tc-99m labeled peptide (≤150 μg, 2-10 mCi). The animals were positioned supine in the field of view of a gamma camera (LEAP colimator/photopeaked for Tc-99m) and imaged over the first hour post-injection, and then at approximately 1 h intervals over the next three hours post injection. Animals were allowed to recover between image acquisitions and re-anesthetized as needed. […]
Numbered stars: 1 amine (or outer) side, 2 acyl side, 3 side chain; on linkers, the order of the positions; unused ones are H or OH. Square brackets hold non-standard residues; d marks the D form. Ends that are not written are not given here. * marks the point of attachment. BAT = N6,N9-bis(2-methyl-2-mercaptopropyl)-6,9-diazanonanoic acid (chelator), CC(C)(S)CNCCN(CCCCC(=O)*)CC(C)(C)S; C(Acm) = CC(=O)NCSC[C@H](N[*:1])C(=O)[*:2]; pGlu = O=C1CC[C@@H](C(=O)O)N1; Picolinoyl = O=C(c1ccccn1)*; Acm = CC(=O)NC*
measured.endpoint: Ratio of Infected/Control
Please respond with just the number, no unit label.

Example results:
[
  {
    "substance": "Pic.GC(VGVAPG)3 amide (Picolinoyl-GCVGVAPGVGVAPGVGVAPG-NH2; numbers in words are those of the source; also: Tc-99m label) [PicGC(VGVAPG)3 amide]",
    "target.under.test": "infected muscle tissue",
    "Ratio of Infected/Control": 5.58
  },
  {
    "substance": "[BAT].(VPGVG)4 amide ({BAT}-VPGVGVPGVGVPGVGVPGVG-NH2; also: Tc-99m label)",
    "target.under.test": "infected muscle tissue",
    "Ratio of Infected/Control": 5.33
  },
  {
    "substance": "acetyl.KKKKKCAcm GCAcm GGPLYKKIIKKLLES (Ac-KKKKKC(Acm)GC(Acm)GGPLYKKIIKKLLES; also: Tc-99m label) [Ac.KKKKKCAcm GCAcm GGPLYKKIIKKLLES]",
    "target.under.test": "infected muscle tissue",
    "Ratio of Infected/Control": 5.60
  },
  {
    "substance": "(acetyl.CCAcm GCAcm PLYKKIIKKLLES)2.BSME ({Ac-Cys-C(Acm)-Gly-C(Acm)}-PLYKKIIKKLLES; also: dimer via BSME, Tc-99m label) [(Ac.CCAcm GCAcm PLYKKIIKKLLES)2 BSME]",
    "target.under.test": "infected muscle tissue",
    "Ratio of Infected/Control": 7.45
  }
]

Please examine the following record next.
input: Notebook: pull reported Ratio of Infected/Control for infected muscle tissue, entry pGlu.GVNDNEEGFFSARCAcm GCAcm amide ([pGlu]GVNDNEEGFFSARC(Acm)GC(Acm)-NH2; also: Tc-99m label)
output: 5.68

###

Test: in vivo
Design: species or system New Zealand white rabbits
Conditions: rabbit, iv, Control Muscle (% ID/g)
Peptide text beside a SMILES is read from it. * marks the point of attachment. X1 = CC(C)(S)CNCCN(CCCCC(=O)*)CC(C)(C)S; For = O=C*
measured.endpoint: tissue uptake (%ID/g)
The answer is to be given in %ID/g; state only the numeric part.

input: Request the reported tissue uptake associated with CSCC[C@H](NC=O)C(=O)N[C@@H](CC(C)C)C(=O)N[C@@H](Cc1ccccc1)C(=O)N[C@@H](CCCCNC(=O)CCCCN(CCNCC(C)(C)S)CC(C)(C)S)C(N)=O (99mTc complex, metal not drawn) [formyl.MLFK.[BAT]amide, formyl.MLFK.[BAT].amide] (For-MLFK(X1)-NH2)
output: 0.0028

###

Collected tissue uptake values appear next to each entry.
Experiment: in vivo
Parameters: species or system New Zealand white rabbits
Details: New Zealand white, rabbit, iv, total radioactivity, Blood (% ID/g)
The answer is to be given in %ID/g; state only the numeric part.

[
  {
    "molecule": "CC(C)C[C@H](NC(=O)C1(NC=O)CCSCC1)C(=O)N[C@@H](Cc1ccccc1)C(=O)NCCCCCN(CCNCC(C)(C)S)CC(C)(C)S [formyl.Thp.LF.[BAM]]",
    "display.unit": "%ID/g",
    "tissue uptake": 0.006
  }
]

input: Request the reported tissue uptake associated with CCCC(CCC)(NC(=O)[C@H](CCSC)NC=O)C(=O)N[C@@H](Cc1ccccc1)C(=O)NCCCCCN(CCNCC(C)(C)S)CC(C)(C)S [formyl.M.Dpg.F.[BAM], formyl.M.DpgF.[BAM]]
output: 0.003

Cited source: patent US5989519A
